- Measurement Target: ACE (from rabbit lung) (Oryctolagus cuniculus, UniProt P12822)
- Construct: ACE (from rabbit lung); purchased Sigma-Aldrich Co. (St. Louis, MO, USA); host or cells: rabbit lung tissue
- Sequence (P12822 34-1310): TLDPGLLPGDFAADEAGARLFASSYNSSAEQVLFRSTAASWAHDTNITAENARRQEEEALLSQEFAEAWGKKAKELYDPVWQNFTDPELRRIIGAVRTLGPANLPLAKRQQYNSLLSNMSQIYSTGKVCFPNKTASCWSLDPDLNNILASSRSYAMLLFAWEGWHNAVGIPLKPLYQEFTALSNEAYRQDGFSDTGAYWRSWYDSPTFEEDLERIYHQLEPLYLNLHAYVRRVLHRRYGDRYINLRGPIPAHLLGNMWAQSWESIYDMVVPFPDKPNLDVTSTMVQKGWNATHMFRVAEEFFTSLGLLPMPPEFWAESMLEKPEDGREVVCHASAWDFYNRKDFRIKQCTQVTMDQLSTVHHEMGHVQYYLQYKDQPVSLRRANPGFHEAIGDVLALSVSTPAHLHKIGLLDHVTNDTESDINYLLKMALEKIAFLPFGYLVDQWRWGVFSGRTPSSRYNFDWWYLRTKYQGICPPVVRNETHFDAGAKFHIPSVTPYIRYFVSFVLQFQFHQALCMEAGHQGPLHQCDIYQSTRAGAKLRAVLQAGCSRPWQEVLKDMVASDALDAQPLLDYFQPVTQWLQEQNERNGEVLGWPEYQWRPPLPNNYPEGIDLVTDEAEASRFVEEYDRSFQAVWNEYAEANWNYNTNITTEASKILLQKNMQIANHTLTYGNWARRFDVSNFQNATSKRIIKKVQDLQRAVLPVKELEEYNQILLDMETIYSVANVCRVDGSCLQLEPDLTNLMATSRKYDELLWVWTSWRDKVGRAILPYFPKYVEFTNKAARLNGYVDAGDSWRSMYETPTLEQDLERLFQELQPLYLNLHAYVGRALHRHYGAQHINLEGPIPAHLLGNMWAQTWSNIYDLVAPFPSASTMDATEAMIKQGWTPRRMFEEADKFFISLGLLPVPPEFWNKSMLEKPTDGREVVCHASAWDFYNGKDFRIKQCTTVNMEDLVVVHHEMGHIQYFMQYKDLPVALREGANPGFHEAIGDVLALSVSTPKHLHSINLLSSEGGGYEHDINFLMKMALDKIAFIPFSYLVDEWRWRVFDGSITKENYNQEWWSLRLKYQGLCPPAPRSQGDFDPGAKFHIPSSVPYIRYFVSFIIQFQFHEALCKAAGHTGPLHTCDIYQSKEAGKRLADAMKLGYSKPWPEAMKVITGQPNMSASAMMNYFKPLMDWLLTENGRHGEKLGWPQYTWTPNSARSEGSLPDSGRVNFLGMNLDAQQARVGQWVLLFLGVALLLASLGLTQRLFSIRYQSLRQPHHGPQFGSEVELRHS
- Experiment Description: ACE inhibition activity assay (HHL substrate, hippuric acid by RP-HPLC)
- Type: biochemical
- Stated Conditions: 0.1 U/mL ACE, 5 mM HHL, sodium borate buffer pH 8.3 with 0.3 M NaCl, 37 °C, 60 min; seven peptide concentrations; triplicate, mean ± SD
No end group written: not given here.
Recorded Metric: IC50 (µM)

1) TGAPCR [TGAPCR]: 23.9

---

- Measurement Target: ACE (from rabbit lung) (Oryctolagus cuniculus)
- Construct: ACE (from rabbit lung); purchased Sigma-Aldrich Co. (St. Louis, MO, USA); host or cells: rabbit lung tissue
- Experiment Description: Determination of inhibitory pattern (Lineweaver-Burk plots)
- Type: biochemical
- Stated Conditions: X-axis intercept of the plot of Lineweaver-Burk slopes against peptide concentration
pKi: −log10 of the molar value. No end group written: not given here.
Recorded Metric: pKi

1. TGAPCR [TGAPCR]: 3.07
